Test system: A498 renal
Assay: NCI tumour cell line growth inhibition, 48 h
Test Readout: GI50

Past entries and their recorded results:
CNC(=O)c1c(NC(=O)c2ccc(C(C)(C)C)cc2)sc2c1CCC(=O)C2 ... 0.647 µM
CCOC(=O)c1cc2c(cc1Cl)SC(=Nc1ccccc1)N(S(=O)(=O)c1ccc(Cl)cc1)S2(=O)=O ... 11.4 µM
COc1ccc(C/C(=C(\C)c2ccc(OCCN3CCCC3)cc2)c2ccc(OCCN3CCCC3)cc2)cc1 ... 2.5 µM
Nc1nc([Se])c2ncn(C3OC(CO)C(O)C3O)c2n1 (stereo not drawn) ... 17 µM
Cc1cccc2nc3ccccc3c(Nc3ccc(NS(C)(=O)=O)cc3)c12 ... 3.81 µM
CC1=C(SCCC(=O)OC(C[Se]C2=C(C)C(=O)c3ccccc3C2=O)C(=O)NCCCCCC(=O)OCc2ccccc2)C(=O)c2ccccc2C1=O (stereo not drawn) ... 11.9 µM
COc1cc(Nc2ncc(-c3ccccc3)o2)cc(OC)c1 ... 5.57 µM
O=C(N/N=C\c1ccc(N(CCCl)CCCl)cc1[N+](=O)[O-])c1cccnc1 ... > 100 µM
COC(=O)[C@H](Cc1cnc[nH]1)NC(=O)[C@@H](NC(=O)Nc1cc(C(F)(F)F)cc(C(F)(F)F)c1)C(C)C ... 13 µM
Cc1ccc(/C=N/Nc2nc(Nc3ccccc3)nc(-n3nc(C)cc3C)n2)cc1 ... 7.13 µM

q: Supply GI50 value. Item: `CC1(C)CNc2cc(NC(=O)c3cccnc3NCc3ccncc3)ccc21`
a: 12.5 µM

q: Supply GI50 value. Item: `CCOCCCn1c2c(c3c(O)cccc31)C(=O)c1ccccc1-2`
a: 21.7 µM

q: Supply GI50 value. Item: `Cn1cc(-c2ccc3cc(-c4ccc(CC(=O)Nc5cc(C(C)(C)C)on5)cc4)cnc3c2)cn1`
a: 0.269 µM

----------
System: NCI-H522 lung
Assay: NCI tumour cell line growth inhibition, 48 h
Test Readout: TGI (µM)
Response body: numeric value in µM, unit text excluded.

q: Supply TGI value. Item: `COc1ccc(C/C(=C(\C)c2ccc(OCCN3CCCC3)cc2)c2ccc(OCCN3CCCC3)cc2)cc1`
a: 3.53

q: Supply TGI value. Item: `Cc1cc(=O)n2nc(CCl)sc2n1`
a: 20

q: Supply TGI value. Item: COc1c2c(c3ccccc3c1O)C1C=CC2C1 (configuration not stated)
a: 29.3

----------
Test system: OVCAR-8 ovarian
Test: NCI tumour cell line growth inhibition, 48 h; in the data active = GI50 below about 0.43 µM; inactive = the rest
// classify into active, inactive

Previously resolved entries follow.
CCN(CC)CCN1C(=O)c2c(c3c4ccccc4[nH]c3c3ccc4ccccc4c23)C1=O ... inactive
C[CH2][Ge]([CH2]C)([CH2]C)[O]C(=O)C(OC(C)=O)c1ccccc1 (configuration not stated) ... inactive
NCCCC[C@@H]1NC(=O)[C@H](CC(=O)O)NC(=O)CNC(=O)[C@H](CCCN=C(N)N)NC(=O)[C@@H](N)CSSC[C@@H](C(=O)O)NC(=O)[C@H](CC(=O)O)NC(=O)[C@@H]2CCCN2C(=O)CNC1=O ... inactive
COc1ccc2c(c1OC)CO[C@@H]2[C@H]1c2c(cc3c(c2OC)OCO3)CCN1S(=O)(=O)c1cn(C)cn1 ... inactive
COC(=O)[C@H](Cc1cnc[nH]1)NC(=O)[C@@H](NC(=O)Nc1cc(C(F)(F)F)cc(C(F)(F)F)c1)C(C)C ... inactive
COC12C=C/C(=C(/C(=O)OCc3ccccn3)C(=O)CCCCCCCCC3(OC)C=C/C(=C(/C(=O)OCc4ccccn4)C(=O)CCCCCCCC1)O3)O2 ... active

q: Each compound tested received a call. Report the one for `O=C(Nc1ccccc1)Nc1ccc2cc3ccc(NC(=O)Nc4ccccc4)cc3nc2c1` .
a: inactive
